Would you mind telling me the reported Ki of each entry?
Target: hCRTH2 (Homo sapiens, UniProt Q9Y5Y4)
Construct: expressed in transfected cells; host or cells: HEK (human embryonic kidney) cells expressing hCRTH2; membrane preparation
Sequence (Q9Y5Y4 1-395): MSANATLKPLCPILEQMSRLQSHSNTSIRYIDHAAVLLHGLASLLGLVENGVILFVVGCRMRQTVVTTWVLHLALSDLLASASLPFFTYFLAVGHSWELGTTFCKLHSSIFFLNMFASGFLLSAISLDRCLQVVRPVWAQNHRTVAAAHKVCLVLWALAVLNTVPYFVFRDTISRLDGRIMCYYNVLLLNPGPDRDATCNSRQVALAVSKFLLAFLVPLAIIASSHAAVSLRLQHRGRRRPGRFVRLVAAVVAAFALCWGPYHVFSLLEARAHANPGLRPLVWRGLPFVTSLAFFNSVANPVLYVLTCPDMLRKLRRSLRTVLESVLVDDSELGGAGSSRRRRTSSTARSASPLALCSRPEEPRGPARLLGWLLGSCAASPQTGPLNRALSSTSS
Test: Radioligand binding assay ([3H]PGD2 competition, HEK-hCRTH2 membranes)
Conditions: [3H]PGD2 competition, Table B

Item O=C(O)CCCCc1nc2cc(C(=O)N3CCN(c4ccccc4Cl)CC3)ccc2nc1-c1ccc(F)cc1 : provide Ki
2.1 to 20 nM

Item C[C@@H]1CN(c2ccc(F)cc2)CCN1C(=O)c1ccc2nc(-c3ccc(Cl)cc3)c(CCCCC(=O)O)nc2c1 : provide Ki
2.1 to 20 nM

Item C[C@H]1CN(c2ccccc2)CCN1C(=O)c1ccc2nc(-c3ccc(F)cc3)c(CCCCC(=O)O)nc2c1 : provide Ki
2.1 to 20 nM

Item N#Cc1ccccc1N1CCN(C(=O)c2ccc3nc(-c4ccc(Cl)cc4)c(CCCCC(=O)O)nc3c2)CC1 : provide Ki
0.1 to 2 nM

Item O=C(O)CCCCc1nc2cc(C(=O)N3CCC(n4c(=O)[nH]c5ccccc54)CC3)ccc2nc1-c1ccc(Cl)cc1 : provide Ki
2.1 to 20 nM

Item Cc1csc(C(C)N(C)C(=O)c2ccc3nc(-c4ccc(Cl)cc4)c(CCCCC(=O)O)nc3c2)n1 (stereo not shown) : provide Ki
2.1 to 20 nM

Item O=C(N[C@@H]1CCCc2ccccc21)c1ccc2nc(-c3ccc(F)cc3)c(CCC3CC3C(=O)O)nc2c1 (stereo partly shown) : provide Ki
20.1 to 200 nM

Item C[C@H](CCc1nc2cc(C(=O)N[C@H](C)c3ccc(F)cc3)ccc2nc1-c1ccccc1)CC(=O)O : provide Ki
20.1 to 200 nM

Item N#Cc1ccc(C2CN(C(=O)c3ccc4nc(-c5ccc(Cl)cc5)c(CCCCC(=O)O)nc4c3)C2)cc1 : provide Ki
0.1 to 2 nM

Item C[C@@H](CCc1nc2cc(C(=O)N[C@@H]3CCCc4ccccc43)ccc2nc1-c1ccc(F)cc1)CC(=O)O [compound 258] : provide Ki
2.1 to 20 nM

Item O=C(O)CCCCc1nc2cc(C(=O)N[C@@H]3COc4ccccc43)ccc2nc1-c1ccc(Cl)cc1 : provide Ki
0.1 to 2 nM

Item CN1CCN(C(=O)c2ccc3nc(-c4ccc(Cl)cc4)c(CCCCC(=O)O)nc3c2)CC1c1ccccc1 (stereo not shown) : provide Ki
2.1 to 20 nM

Item N#Cc1ccc2c(c1)OCC[C@H]2NC(=O)c1ccc2nc(-c3ccc(Cl)cc3)c(CCCCC(=O)O)nc2c1 : provide Ki
2.1 to 20 nM

Item C[C@@H](NC(=O)c1ccc2nc(-c3ccc(Cl)cc3)c(CCCCC(=O)O)nc2c1)c1cccc2ccccc12 : provide Ki
2.1 to 20 nM

Item O=C(N[C@@H]1CCCc2cc(F)ccc21)c1ccc2nc(-c3ccc(F)cc3)c(CC[C@@H]3C[C@H]3C(=O)O)nc2c1 : provide Ki
2.1 to 20 nM

Item O=C(O)Cc1cc(F)cc(CCc2nc3cc(C(=O)NCc4ccc(Cl)cc4)ccc3nc2-c2ccc(Cl)cc2)c1 : provide Ki
2.1 to 20 nM

Item O=C(O)CCCCc1nc2cc(C(=O)NC3CC(=O)Nc4ccccc43)ccc2nc1-c1ccccc1 (stereo not shown) [compound 576] : provide Ki
2.1 to 20 nM

Item C[C@@H](CCc1nc2cc(C(=O)N[C@H](C)c3ccc(F)cc3)ccc2nc1-c1ccc(F)cc1)CC(=O)O : provide Ki
2.1 to 20 nM

Item C[C@@H](NC(=O)c1ccc2nc(-c3ccccc3)c(CCCCC(=O)O)nc2c1)c1cncc2ccccc12 : provide Ki
201 to 700 nM

Item Cc1ccc(CNC(=O)c2ccc3nc(-c4ccccc4)c(CCCC(F)(F)C(=O)O)nc3c2)cc1 : provide Ki
20.1 to 200 nM

Item O=C(O)CCCCc1nc2cc(C(=O)N[C@H]3CCS(=O)(=O)c4ccccc43)ccc2nc1-c1ccc(F)cc1 : provide Ki
2.1 to 20 nM

Item O=C(O)CCCCc1nc2cc(C(=O)N[C@H]3c4ccccc4C[C@H]3O)ccc2nc1-c1ccc(F)cc1 : provide Ki
2.1 to 20 nM

Item O=C(O)CCCCc1nc2cc(C(=O)N3CCN(c4ccc(F)cc4)CC3)ccc2nc1-c1ccccc1 : provide Ki
2.1 to 20 nM

Item C[C@@H](CCc1nc2cc(C(=O)N[C@H](C)c3ccc(F)cc3)ccc2nc1-c1ccc(Cl)cc1)CC(=O)O : provide Ki
0.1 to 2 nM

Item CC(CCCc1nc2cc(C(=O)N3CCN(c4ccccc4)CC3)ccc2nc1-c1ccc(C(F)(F)F)cc1)C(=O)O (stereo not shown) : provide Ki
2.1 to 20 nM

Item O=C(O)CCCCc1nc2cc(C(=O)N[C@H]3CCOc4cc(F)ccc43)ccc2nc1-c1ccccc1 : provide Ki
2.1 to 20 nM

Item O=C(O)CCCCc1nc2cc(C(=O)N3CCN(C(=O)OCc4ccccc4)CC3)ccc2nc1-c1ccc(Cl)cc1 : provide Ki
2.1 to 20 nM

Item CC1(C)CCC(NC(=O)c2ccc3nc(-c4ccccc4)c(CCCCC(=O)O)nc3c2)c2ccccc21 (stereo not shown) [compound 707] : provide Ki
2.1 to 20 nM

Reference for the values: patent US9469615B2
